Kindly state IC50 for each of the entries shown.

Tell me its IC50 on HPK1 (Homo sapiens): O=C1OC[C@H]2CN(c3ccc4cc3OCCCOc3cccc(F)c3-c3cc5c-4n[nH]c5cn3)CCN12 [Compound 134]
Sequence (Q92918 whole entry): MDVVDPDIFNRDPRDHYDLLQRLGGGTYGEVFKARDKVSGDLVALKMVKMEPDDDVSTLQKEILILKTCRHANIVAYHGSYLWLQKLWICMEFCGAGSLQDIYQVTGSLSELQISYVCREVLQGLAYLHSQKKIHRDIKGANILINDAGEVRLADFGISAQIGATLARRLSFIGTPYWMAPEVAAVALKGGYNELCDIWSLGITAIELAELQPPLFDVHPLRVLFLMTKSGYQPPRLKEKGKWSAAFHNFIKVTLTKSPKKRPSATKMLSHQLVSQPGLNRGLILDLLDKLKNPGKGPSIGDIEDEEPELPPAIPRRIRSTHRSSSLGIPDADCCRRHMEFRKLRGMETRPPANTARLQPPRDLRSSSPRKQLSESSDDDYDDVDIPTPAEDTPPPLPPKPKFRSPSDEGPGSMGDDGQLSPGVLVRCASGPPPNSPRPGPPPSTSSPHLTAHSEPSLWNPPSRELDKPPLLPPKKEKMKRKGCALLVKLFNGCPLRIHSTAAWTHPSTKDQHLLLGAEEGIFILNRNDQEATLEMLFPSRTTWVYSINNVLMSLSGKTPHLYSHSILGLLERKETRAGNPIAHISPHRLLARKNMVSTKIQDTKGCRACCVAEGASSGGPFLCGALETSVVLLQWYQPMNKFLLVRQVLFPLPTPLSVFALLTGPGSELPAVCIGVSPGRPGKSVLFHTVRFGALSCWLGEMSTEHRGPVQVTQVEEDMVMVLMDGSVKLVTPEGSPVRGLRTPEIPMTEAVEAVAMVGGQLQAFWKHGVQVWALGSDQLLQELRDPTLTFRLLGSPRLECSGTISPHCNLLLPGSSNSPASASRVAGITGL
≤ 5 nM

Tell me its IC50 on HPK1 (Homo sapiens): OC1(CN2CCOCC2)CCN(c2ccc3cc2OCCCOc2cccc(F)c2-c2cc4c-3n[nH]c4cn2)CC1 [Compound 113]
5 to 50 nM

Tell me its IC50 on HPK1 (Homo sapiens): Fc1cccc2c1-c1cc3c(n[nH]c3cn1)-c1ccc(N3CCN4CCOC[C@H]4C3)c(c1)OCCCO2 [Compound 102]
≤ 5 nM

Tell me its IC50 on HPK1 (Homo sapiens): CN1C[C@@H]2CN(c3ccc4cc3OCCCOCc3cccc(F)c3-c3cc5c-4n[nH]c5cn3)CCN2CC1=O [Compound 128]
≤ 5 nM

Tell me its IC50 on HPK1 (Homo sapiens): CN1CCN(c2ccc3cc2OCCCOCc2cccc(F)c2-c2ncc4[nH]nc-3c4n2)CC1 [Compound 115]
5 to 50 nM

Tell me its IC50 on HPK1 (Homo sapiens): OC1CCN(c2ccc3cc2OCCCOCc2cccc(F)c2-c2cc4c-3n[nH]c4cn2)CC1 [Compound 107]
≤ 5 nM

Tell me its IC50 on HPK1 (Homo sapiens): CN1C[C@H]2CN(c3ccc4cc3OCCCOCc3cccc(F)c3-c3cc5c-4n[nH]c5cn3)CCN2CC1=O [Compound 127]
≤ 5 nM

Tell me its IC50 on HPK1 (Homo sapiens): Fc1cccc2c1-c1cc3c(n[nH]c3cn1)-c1ccc(N3C[C@@H]4C[C@H]3CN4C3COC3)c(c1)OCCCOC2 [Compound 153]
≤ 5 nM

Tell me its IC50 on HPK1 (Homo sapiens): OCCN1C2CCC1CN(c1ccc3cc1OCCCOc1cccc(F)c1-c1cc4c-3n[nH]c4cn1)C2 [Compound 145]
≤ 5 nM

Tell me its IC50 on HPK1 (Homo sapiens): CN1CCN(c2ccc3cc2OCCCCOCc2cccc(F)c2-c2cc4c-3n[nH]c4cn2)CC1 [Compound 100]
5 to 50 nM

Tell me its IC50 on HPK1 (Homo sapiens): CN1C2CC1CN(c1ccc3cc1OCCCOc1cccc(F)c1-c1cc4c-3n[nH]c4cn1)C2 [Compound 117]
≤ 5 nM

Tell me its IC50 on HPK1 (Homo sapiens): CN1CCN(c2ccc3cc2OCCCOCc2cccc(F)c2-c2cc4c-3n[nH]c4cn2)C[C@H]1CO [Compound 122]
≤ 5 nM

Tell me its IC50 on HPK1 (Homo sapiens): CN1C2CCC1CN(c1ccc3cc1OCCCOCc1cccc(F)c1-c1cc4c-3n[nH]c4cn1)C2 [Compound 18]
≤ 5 nM

Tell me its IC50 on HPK1 (Homo sapiens): OCCN1CCN(c2ccc3cc2OCCCOCc2cccc(F)c2-c2cc4c-3n[nH]c4cn2)CC1 [Compound 12]
≤ 5 nM

Tell me its IC50 on HPK1 (Homo sapiens): CN1CCN(c2ccc3cc2OCCCOCc2cccc(F)c2-c2cc4c-3n[nH]c4cn2)C[C@@H]1CO [Compound 121]
≤ 5 nM

Tell me its IC50 on HPK1 (Homo sapiens): CN1C[C@@H]2C[C@H]1CN2c1ccc2cc1OCCCOCc1cccc(F)c1-c1cc3c-2n[nH]c3cn1 [Compound 151]
≤ 5 nM

Tell me its IC50 on HPK1 (Homo sapiens): CN1CCN(C2CCN(c3ccc4cc3OCCCOCc3cccc(F)c3-c3cc5c-4n[nH]c5cn3)CC2)CC1 [Compound 109]
≤ 5 nM

Tell me its IC50 on HPK1 (Homo sapiens): Fc1cccc2c1-c1cc3c(n[nH]c3cn1)-c1ccc(N3CC4CC(C3)N4C3COC3)c(c1)OCCCO2 [Compound 146]
≤ 5 nM

Tell me its IC50 on HPK1 (Homo sapiens): OC1CCN(c2ccc3cc2OCCCOc2cccc(F)c2-c2cc4c-3n[nH]c4cn2)CC1 [Compound 106]
5 to 50 nM

Tell me its IC50 on HPK1 (Homo sapiens): OC1CCN(C2CCN(c3ccc4cc3OCCCOCc3cccc(F)c3-c3cc5c-4n[nH]c5cn3)CC2)CC1 [Compound 112]
≤ 5 nM

Tell me its IC50 on HPK1 (Homo sapiens): Fc1cccc2c1-c1cc3c(n[nH]c3cn1)-c1ccc(N3CC4CC(C3)N4CC3CCOCC3)c(c1)OCCCO2 [Compound 147]
≤ 5 nM

Tell me its IC50 on HPK1 (Homo sapiens): CN1C2CC1CN(c1ccc3cc1OCCCOCc1cccc(F)c1-c1cc4c-3n[nH]c4cn1)C2 [Compound 116]
≤ 5 nM

Tell me its IC50 on HPK1 (Homo sapiens): CN1C[C@H]2C[C@@H]1CN2c1ccc2cc1OCCCOc1cccc(F)c1-c1cc3c-2n[nH]c3cn1 [Compound 141]
≤ 5 nM

Tell me its IC50 on HPK1 (Homo sapiens): CN1CCN(C2CCN(c3ccc4cc3OCCCOc3cccc(F)c3-c3cc5c-4n[nH]c5cn3)CC2)CC1 [Compound 108]
≤ 5 nM

Tell me its IC50 on HPK1 (Homo sapiens): CN1C[C@@H]2CN(c3ccc4cc3OCCCOc3cccc(F)c3-c3cc5c-4n[nH]c5cn3)CCN2CC1=O [Compound 138]
≤ 5 nM

Tell me its IC50 on HPK1 (Homo sapiens): CN1C2CCC1CN(c1ccc3cc1OCCCOc1cccc(F)c1-c1cc4c-3n[nH]c4cn1)C2 [Compound 144]
≤ 5 nM

Origin of values: patent US20240383911A1
